Reported values of pIC50 for individual entries
target: 72 kDa type IV collagenase (Homo sapiens, UniProt P08253); test: inhibition of human recombinant MMP2 catalytic domain
Sequence (P08253 whole entry, the tested form may be a part): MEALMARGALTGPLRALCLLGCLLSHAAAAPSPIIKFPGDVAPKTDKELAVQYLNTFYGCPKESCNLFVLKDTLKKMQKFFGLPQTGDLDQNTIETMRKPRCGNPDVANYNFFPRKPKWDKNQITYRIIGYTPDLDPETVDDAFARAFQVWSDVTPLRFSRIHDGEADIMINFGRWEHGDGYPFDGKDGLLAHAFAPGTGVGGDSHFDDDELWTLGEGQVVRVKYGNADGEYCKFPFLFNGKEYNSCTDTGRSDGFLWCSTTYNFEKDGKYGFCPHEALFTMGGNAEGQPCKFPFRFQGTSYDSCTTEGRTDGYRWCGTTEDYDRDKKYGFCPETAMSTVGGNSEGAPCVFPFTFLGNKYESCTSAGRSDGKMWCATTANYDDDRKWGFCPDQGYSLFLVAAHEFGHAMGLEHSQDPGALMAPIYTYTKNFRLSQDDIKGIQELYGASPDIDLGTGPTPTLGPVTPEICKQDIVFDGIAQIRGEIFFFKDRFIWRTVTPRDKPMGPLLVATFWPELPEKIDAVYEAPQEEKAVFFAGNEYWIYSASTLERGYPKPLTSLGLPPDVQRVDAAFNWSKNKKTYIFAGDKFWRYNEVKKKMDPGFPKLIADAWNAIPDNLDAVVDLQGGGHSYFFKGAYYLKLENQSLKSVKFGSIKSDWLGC
Scale note: pIC50 = -log10(concentration in M).

In [3]: df
Out[3]:
                                        mol  numeric_value
0  CC(=O)N1CCC(C(=O)NO)(S(=O)(=O)c2ccc(OCc3cc(C)nc4ccccc34)cc2)CC1           5.16

Record summary for "CCNC(=O)N1CCC(C(=O)NO)(S(=O)(=O)c2ccc(OCc3cc(C)nc4ccccc34)cc2)CC1" : reported pIC50 = 5.44

The recorded pIC50 for entry "Cc1cc(COc2ccc(S(=O)(=O)C3(C(=O)NO)CCN(C(=O)c4ccncc4)CC3)cc2)c2ccccc2n1" equals 5.96

// recorded pIC50 for "Cc1cc(COc2ccc(S(=O)(=O)C3(C(=O)NO)CCN(Cc4ccc(Cl)c(Cl)c4)CC3)cc2)c2ccccc2n1" : 6.84
